SYSTEM TESTED: CDK1/Cyclin B1 (Homo sapiens, UniProt P06493)
Sequence (P06493 whole entry): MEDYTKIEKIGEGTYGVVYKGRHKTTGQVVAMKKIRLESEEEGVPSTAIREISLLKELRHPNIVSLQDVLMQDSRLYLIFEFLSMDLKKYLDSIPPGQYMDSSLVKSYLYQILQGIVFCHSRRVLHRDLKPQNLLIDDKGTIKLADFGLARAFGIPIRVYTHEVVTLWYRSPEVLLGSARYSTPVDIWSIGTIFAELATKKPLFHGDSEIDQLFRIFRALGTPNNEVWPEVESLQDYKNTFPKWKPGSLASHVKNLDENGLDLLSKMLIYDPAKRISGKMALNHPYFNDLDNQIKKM
Sequence (P14635 whole entry partner): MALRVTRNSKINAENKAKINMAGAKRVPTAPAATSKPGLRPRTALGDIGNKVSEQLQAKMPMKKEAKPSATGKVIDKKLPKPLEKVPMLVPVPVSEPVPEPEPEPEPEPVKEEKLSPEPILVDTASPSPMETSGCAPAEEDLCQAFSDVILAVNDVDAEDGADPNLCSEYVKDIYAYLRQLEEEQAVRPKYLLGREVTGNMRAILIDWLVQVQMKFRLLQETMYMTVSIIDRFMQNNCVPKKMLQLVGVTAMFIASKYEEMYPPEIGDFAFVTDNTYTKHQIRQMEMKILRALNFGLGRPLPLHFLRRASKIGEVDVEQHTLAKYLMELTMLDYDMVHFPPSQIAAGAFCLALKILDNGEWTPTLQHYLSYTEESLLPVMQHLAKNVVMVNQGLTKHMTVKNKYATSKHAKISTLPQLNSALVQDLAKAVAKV
MEASUREMENT NOTES: CDK1/Cyclin B1 TR-FRET biochemical assay, 0.015 mM ATP
STUDY CONDITIONS: 0.15 μM Rb (Ser780)-biotin substrate, 120 min reaction, Table 1
Would you kindly list IC50 for each of these compounds?
Numbers only, in µM.

Record excerpt, results attached:
CC(C)(C)c1cn[nH]c1O[C@@H]1CC[C@H](c2cc(Nc3ccc4c(c3F)CNS4(=O)=O)n[nH]2)C1 (relative stereo) [Example 61]: 0.056
CC(C)(C)c1n[nH]cc1OC1CCC(c2cc(Nc3ccc4c(c3F)CNS4(=O)=O)n[nH]2)C1 (single isomer, unassigned) [Example 74a]: 0.301
CC1(n2cnnc2O[C@@H]2CC[C@H](c3cc(Nc4ccc5c(c4F)CNS5(=O)=O)n[nH]3)C2)CC1 (relative stereo) [Example 58]: 7.2
CC(C)(C)c1ncccc1O[C@@H]1CC[C@H](c2cc(Nc3ccc4c(c3F)CNS4(=O)=O)n[nH]2)C1 (relative stereo) [Example 45]: 7.12
O=c1cccnn1[C@H]1CC[C@@H](c2cc(Nc3ccc4c(c3F)CNS4(=O)=O)n[nH]2)C1 (relative stereo) [Example 21]: 0.142
CCc1cnc(C2CCC(c3cc(Nc4ccc5c(c4F)CNS5(=O)=O)n[nH]3)C2)o1 (stereo not shown) [Example 92]: 0.509

Let's switch to this compound now.
Exercise: Please look up its IC50: O=S1(=O)NCc2c1ccc(Nc1cc([C@H]3CC[C@@H](Oc4cn[nH]c4)C3)[nH]n1)c2F (relative stereo) [Example 76]
Solution: 1.61

Provenance of the data: patent US20260200897A1
